Values from patent US20250313535A1

For each entry below, report its pIC50 value.
- tested_on: α4β7 integrin (Homo sapiens (Human), UniProt P13612+P26010)
- Sequence (P13612 34-1032): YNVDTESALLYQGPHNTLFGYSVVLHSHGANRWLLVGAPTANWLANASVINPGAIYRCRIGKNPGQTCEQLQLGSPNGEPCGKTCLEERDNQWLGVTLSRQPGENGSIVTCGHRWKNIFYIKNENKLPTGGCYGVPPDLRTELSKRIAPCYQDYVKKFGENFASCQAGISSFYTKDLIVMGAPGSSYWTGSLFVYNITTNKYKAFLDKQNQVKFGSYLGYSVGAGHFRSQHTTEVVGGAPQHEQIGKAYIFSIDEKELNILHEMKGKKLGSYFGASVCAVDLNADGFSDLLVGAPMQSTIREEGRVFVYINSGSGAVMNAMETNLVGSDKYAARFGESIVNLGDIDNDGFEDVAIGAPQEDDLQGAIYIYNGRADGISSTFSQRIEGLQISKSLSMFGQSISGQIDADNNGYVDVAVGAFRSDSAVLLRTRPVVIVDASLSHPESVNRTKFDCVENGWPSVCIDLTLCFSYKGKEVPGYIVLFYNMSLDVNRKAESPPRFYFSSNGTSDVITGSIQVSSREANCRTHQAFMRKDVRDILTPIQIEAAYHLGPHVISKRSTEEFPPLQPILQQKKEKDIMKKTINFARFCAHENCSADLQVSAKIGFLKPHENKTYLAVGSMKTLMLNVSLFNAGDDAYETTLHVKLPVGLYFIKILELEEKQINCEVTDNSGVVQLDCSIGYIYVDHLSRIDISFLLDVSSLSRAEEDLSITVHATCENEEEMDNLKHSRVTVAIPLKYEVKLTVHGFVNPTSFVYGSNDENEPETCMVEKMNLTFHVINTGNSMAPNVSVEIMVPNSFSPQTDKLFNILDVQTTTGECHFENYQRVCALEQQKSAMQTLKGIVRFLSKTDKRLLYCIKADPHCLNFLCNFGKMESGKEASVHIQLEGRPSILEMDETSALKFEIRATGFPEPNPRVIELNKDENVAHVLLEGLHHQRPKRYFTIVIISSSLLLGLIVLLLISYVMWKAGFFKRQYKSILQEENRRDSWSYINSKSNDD
- Sequence (P26010 20-798): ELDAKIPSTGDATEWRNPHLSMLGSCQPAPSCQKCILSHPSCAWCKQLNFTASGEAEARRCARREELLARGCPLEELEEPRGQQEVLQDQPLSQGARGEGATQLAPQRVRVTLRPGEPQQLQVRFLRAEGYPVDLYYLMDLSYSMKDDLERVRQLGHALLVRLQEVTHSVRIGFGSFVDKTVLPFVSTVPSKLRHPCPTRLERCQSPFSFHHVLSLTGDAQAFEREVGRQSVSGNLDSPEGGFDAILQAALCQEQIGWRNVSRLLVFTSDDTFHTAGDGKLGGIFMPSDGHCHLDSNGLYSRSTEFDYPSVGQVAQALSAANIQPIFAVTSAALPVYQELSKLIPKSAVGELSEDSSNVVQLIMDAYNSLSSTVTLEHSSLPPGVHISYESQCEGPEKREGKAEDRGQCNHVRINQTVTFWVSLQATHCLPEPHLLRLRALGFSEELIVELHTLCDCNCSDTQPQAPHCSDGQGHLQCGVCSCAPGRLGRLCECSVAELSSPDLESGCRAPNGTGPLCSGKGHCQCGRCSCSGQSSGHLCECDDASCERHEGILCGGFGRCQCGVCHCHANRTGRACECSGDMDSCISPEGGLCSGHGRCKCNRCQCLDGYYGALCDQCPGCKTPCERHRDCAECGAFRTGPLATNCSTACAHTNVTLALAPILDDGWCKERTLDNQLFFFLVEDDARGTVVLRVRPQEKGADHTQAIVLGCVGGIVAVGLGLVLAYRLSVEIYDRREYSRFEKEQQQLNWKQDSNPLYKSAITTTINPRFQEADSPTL
- assay_summary: Integrin Adhesion Assay: Protocol 1 (MAdCAM-coated plate, RPMI-8866 cells, CellTiter GLO readout)
- Assay type: cell-based
- Description: α4β7 and α4β1 inhibition was evaluated in vitro using at least one of the following procedures: Integrin Adhesion Assay: Protocol 1 MAdCAM (R&D Systems, 0.1 ug) was diluted in 50 μL PBS, added to each well of an opaque ELISA plate (Thermo), and incubated overnight at 4° C. […] Plates were mixed for 2 minutes at 1000 rpm and then allowed to incubate an additional 10 minutes before reading out luminescence on a Tecan Spark plate reader. […]
pIC50: −log10 of the molar value.

# pIC50 of Cn1c(=O)c(-c2cccc3c(C[C@H](NC(=O)c4c(F)cc(N5CCOc6ccc(C(F)(F)F)cc65)cc4F)C(=O)O)cccc23)c(C(F)(F)F)c2ccccc21 [Compound 343] = < 6.00

The recorded pIC50 for Cn1c(=O)c(-c2cccc3c(C[C@H](NC(=O)C4(C)CCN([C@@H]5CCOC5)CC4)C(=O)O)cccc23)c(C(F)(F)F)c2ccccc21 [Compound 414] is > 8.00

pIC50 measured on Cc1cccc(F)c1C(=O)N[C@@H](Cc1cccc2c(-c3c(C(F)(F)F)ccn(C)c3=O)cccc12)C(=O)O [Compound 460] = 7.00 to 8.00

pIC50 recorded for this compound, CCOCc1cc(OC)c(-c2cccc3c(C[C@H](NC(=O)c4c(C)cccc4F)C(=O)O)cccc23)c(OC)c1 [Compound 448] , is > 8.00

Reported pIC50 ( Cn1c(=O)c(-c2cccc3c(C[C@H](NC(=O)c4c(F)cc(N5CCOC[C@@H]5c5ccccc5)cc4F)C(=O)O)cccc23)c(C(F)(F)F)c2ccccc21 [Compound 336] ) = 6.00 to 7.00

Sure, the documented pIC50 for Cn1c(=O)c(-c2cccc3c(C[C@H](NC(=O)c4c(F)cc(N5CCOC[C@@H]5C(F)(F)F)cc4CN4CCCC4)C(=O)O)cccc23)c(C(F)(F)F)c2ccccc21 [Compound 359] is > 8.00

So, CC(C)[C@H]1COCCN1c1cc(F)c(C(=O)N[C@@H](Cc2cccc3c(-c4c(C(F)(F)F)c5ccccc5n(C)c4=O)cccc23)C(=O)O)c(F)c1 [Compound 337] ? Its pIC50 was 6.00 to 7.00

// sample Cn1c(=O)c(-c2cccc3c(C[C@H](NC(=O)c4c(F)cc(N5CCO[C@@H](c6ccccc6)C5)cc4F)C(=O)O)cccc23)c(C(F)(F)F)c2ccccc21 [Compound 338] , its pIC50 was < 6.00

Value of pIC50 reported for the compound CC[C@@](Cc1cccs1)(C(=O)N[C@@H](Cc1cccc2c(-n3c(=O)ccn(C)c3=O)cccc12)C(=O)O)c1ccccc1 [Compound 292] is 6.00 to 7.00

Just so you know, measured pIC50 for Cc1cncc(C)c1-c1cc(F)c(C(=O)N[C@@H](Cc2cccc3c(-c4c(C(F)(F)F)c5ccccc5n(C)c4=O)cccc23)C(=O)O)c(F)c1 [Compound 305] came out at 6.00 to 7.00

response.value for Cn1c(=O)c(-c2cccc3c(C[C@H](NC(=O)c4c(F)cc([C@H]5C[C@H](N(C)C)C5)cc4F)C(=O)O)cccc23)c(C(F)(F)F)c2ccccc21 [Compound 417] (field: pIC50) = < 6.00

# pIC50 (compound: COCC1CCN(c2cc(F)c(C(=O)N[C@@H](Cc3cccc4c(-c5c(C(F)(F)F)c6ccccc6n(C)c5=O)cccc34)C(=O)O)c(F)c2)C1 (some centres unmarked) [Compound 463] ) is < 6.00

Entry Cn1c(=O)c(-c2cccc3c(C[C@H](Nc4nccc(N5CCOC[C@@H]5C(F)(F)F)c4F)C(=O)O)cccc23)c(C(F)(F)F)c2ccccc21 [Compound 326] — recorded pIC50 = < 6.00

Recorded result, Cn1c(=O)c(-c2cccc3c(C[C@H](NC(=O)c4c(F)cc(-c5ccc(F)c(Cl)c5)cc4F)C(=O)O)cccc23)c(C(F)(F)F)c2ccccc21 [Compound 345] , pIC50: < 6.00

Summary for this compound, Cn1c(=O)c(-c2cccc3c(C[C@H](NC(=O)c4c(F)cc(N5CC(C(F)(F)F)C5)cc4F)C(=O)O)cccc23)c(C(F)(F)F)c2ccccc21 [Compound 388] : pIC50 is 6.00 to 7.00

The reported value for COCCN(c1cc(F)c(C(=O)N[C@@H](Cc2cccc3c(-c4c(C(F)(F)F)c5ccccc5n(C)c4=O)cccc23)C(=O)O)c(F)c1)C1COC1 [Compound 393] in terms of pIC50 is 7.00 to 8.00

// recorded pIC50 for CN(C)c1ccc2c(c1)c(C(F)(F)F)c(-c1cccc3c(C[C@H](NC(=O)C4(C(F)(F)F)CCN(CC(F)(F)F)CC4)C(=O)O)cccc13)c(=O)n2C [Compound 454] : 7.00 to 8.00

Data point: CN(C)Cc1cccc2c(-c3cccc4c(C[C@H](NC(=O)C5(C)CCN(CC(F)(F)F)CC5)C(=O)O)cccc34)nccc12 [Compound 420] ; pIC50 = 7.00 to 8.00

The compound Cn1ccc(C(F)(F)F)c(-c2cccc3c(C[C@H](NC(=O)c4c(F)cc(N5CCOc6ccccc65)cc4F)C(=O)O)cccc23)c1=O [Compound 439] showed pIC50 equal to 7.00 to 8.00

// sample Cc1cccc(C)c1-c1nc(C(=O)N[C@@H](Cc2cccc3c(-c4c(C(F)(F)F)c5ccccc5n(C)c4=O)cccc23)C(=O)O)c(C)n1C [Compound 349] , its pIC50 was < 6.00

CN(C)CCc1cc(F)c(C(=O)N[C@@H](Cc2cccc3c(-c4c(C(F)(F)F)c5ccccc5n(C)c4=O)cccc23)C(=O)O)c(F)c1 [Compound 367] yielded pIC50 of 6.00 to 7.00

// sample Cn1c(=O)c(-c2cccc3c(C[C@H](NC(=O)c4c(F)cc(N5CCO[C@H](c6ccccc6)C5)cc4F)C(=O)O)cccc23)c(C(F)(F)F)c2ccccc21 [Compound 333] , its pIC50 was < 6.00

Summary for this compound, Cn1c(=O)c(-c2cccc3c(C[C@H](NC(=O)c4c(F)cc5[nH]c(CC(F)(F)F)nc5c4F)C(=O)O)cccc23)c(C(F)(F)F)c2ccccc21 [Compound 320] : pIC50 is 6.00 to 7.00
